Data provenance is the RNAGym collection of RNA variant scans (doi:10.1126/science.aae0568).

Assign yeast fitness to each entry below.
B1: tRNA (parent)
chain: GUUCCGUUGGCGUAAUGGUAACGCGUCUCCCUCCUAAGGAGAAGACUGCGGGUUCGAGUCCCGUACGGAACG

variants of: B1; assay: yeast fitness relative to wild type (ratio to wild type); higher = fitter; tRNA-Arg(CCU), competitive growth, 37 C, YPD
Variants at the floor of the assay were thinned out.
One number for each entry.

Below, 5 variants whose answers are already recorded.
C5U U32C A57C = 0.583
U53A G67U = 0.657
A20U G68A A69C = 0.639
U16A G67U = 0.85
A20C G41A = 0.779

The following variants each have a reported value; give each one's yeast fitness.
1. C11G G12C A40G U47C G50C
2. C4U G58C A69C
3. U3A C31U A40C
4. U7A U16C
5. G10C U32A
6. C5G G10C G52A U54A C60G
7. C22G C29G G44C G56A A57G

**Result**
1: 0.897; 2: 0.765; 3: 0.566; 4: 0.751; 5: 0.53; 6: 0.629; 7: 0.515

Look at each variant and report its yeast fitness.
1. C34U G39C
2. G18A C62A

**Result**
1. 0.571
2. 0.513
